This collection of values is drawn from PubChem BioAssay (EPA / NIEHS).

# Read-out: Alpha-fetoprotein (AFP) gene, AFP (gene 174)
# Protocol Text: LTEA_HepaRG_AFP: Life Technologies and Expression Analysis (LTEA) Assay for Alpha-fetoprotein (AFP) gene using HepaRG (AID 2283472)
# Measurement Parameters: mRNA level, 48 h; actives raise or lower the signal
Activity calls are given as the source filed them. How the source made its calls: active means hit-call score of the fitted dose curve at least 0.9, where 1 is the maximum; inactive means score below 0.9.
The categories you may choose from are Yes for active, No for inactive

CCCCCCCC1CCC(=O)O1 (stereo not drawn) ... No

Exam item: Write down the call the test reported for this molecule. Item: C=CCc1cc(S(=O)(=O)c2ccc(O)c(CC=C)c2)ccc1O
Marked response: Yes

Exam item: Write down the call the test reported for this molecule. Item: CCCCCCOC(=O)CC(CC(=O)OCCCCCC)(OC(=O)CCC)C(=O)OCCCCCC
Marked response: No

Exam item: Write down the call the test reported for this molecule. Item: CCc1ccc(O)c(C(C)(C)C)c1
Marked response: No

Exam item: Write down the call the test reported for this molecule. Item: O=C(O)c1ccc2c(c1)nc(C(=O)NC1CCN(C3CC3)CC1)n2Cc1cc(-c2ccc(Cl)s2)on1
Marked response: No

Exam item: Write down the call the test reported for this molecule. Item: NNC(=O)c1ccncc1
Marked response: No

Exam item: Write down the call the test reported for this molecule. Item: O=S(=O)(O)c1ccc(N=Nc2c(O)ccc3cc(S(=O)(=O)O)ccc23)cc1
Marked response: No

Exam item: Write down the call the test reported for this molecule. Item: CCCCCCCCCCCCCCO
Marked response: No

Exam item: Write down the call the test reported for this molecule. Item: C=CN1CCCC1=O
Marked response: No

Exam item: Write down the call the test reported for this molecule. Item: OC(Cn1cncn1)(Cn1cncn1)c1ccc(F)cc1F
Marked response: No

Exam item: Write down the call the test reported for this molecule. Item: OCCOCCOCCO
Marked response: No

Exam item: Write down the call the test reported for this molecule. Item: NC(N)=O
Marked response: No
